Molecular target: CYP2B6 (Homo sapiens (Human), UniProt P20813)
Sequence (P20813 whole entry, looked up): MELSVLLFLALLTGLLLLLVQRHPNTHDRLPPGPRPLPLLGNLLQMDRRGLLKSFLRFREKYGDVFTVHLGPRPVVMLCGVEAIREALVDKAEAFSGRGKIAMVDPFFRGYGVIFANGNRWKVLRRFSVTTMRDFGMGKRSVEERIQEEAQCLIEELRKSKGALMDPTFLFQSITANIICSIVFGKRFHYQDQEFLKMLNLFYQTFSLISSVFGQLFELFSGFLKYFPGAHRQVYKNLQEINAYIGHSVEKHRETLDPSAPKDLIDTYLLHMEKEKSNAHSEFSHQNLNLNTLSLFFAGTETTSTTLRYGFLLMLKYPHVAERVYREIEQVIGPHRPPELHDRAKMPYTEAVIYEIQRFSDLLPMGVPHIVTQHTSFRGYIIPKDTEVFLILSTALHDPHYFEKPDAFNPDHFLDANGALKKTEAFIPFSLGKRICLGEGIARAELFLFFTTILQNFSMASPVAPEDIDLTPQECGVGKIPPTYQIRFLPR
Assay: Fluorescent High Throughput P450 assay, CYP2B6
Assay type: biochemical
Conditions: substrate EFC; read-out: CYP2B6 IC50 (Mean ± S.D.)
pIC50: −log10 of the molar value.
reported.metric: pIC50

[ask] What value of measured pIC50 is listed for CCCCCCCCCCCC(=O)OCC(COP(=O)(O)OCCNC(=O)c1ccc(Cn2c(=O)[nH]c3c(N)nc(OCCOC)nc32)cc1)OC(=O)CCCCCCCCCCC (stereo not shown) ?
[reply] < 4.00

###

System: human PBMCs
Assay: IL-6 secretion in human PBMCs, two batches of Compound A and SC12
Assay type: cell-based
Details: Homo sapiens, PBMC, 24 h, Donor 1, 4 doses
reported.metric: pEC50
Give bare numbers, as −log10 of the molar value.

[ask] For the record CC(C)Cn1cnc2c(N)nc3ccccc3c21 [Imiquimod, reference compound] , what value of pEC50 is listed for human PBMCs?
[reply] 4.75
